assay: qHTS screen for small molecules that inhibit ELG1-dependent DNA repair in human embryonic kidney (HEK293T) cells expressing luciferase-tagged ELG1; conditions: HEK293T ELG1-luciferase reporter, luminescence, 16 h, DNA damage induced by 5-fluorouridine; series mostly up to 46.1 µM; also: nearly all actives have a fitted effect of over 55% in size; also: potency is read from the fitted curve at half-maximal effect
Hit rate of the full screen: of about 330,000 compounds, about 7,700 (2.3%) were called active. Not shown: some 26% with an inconclusive outcome. For the sample, actives were picked, then their nearest neighbours and some compounds at random.
metric.name: Potency

Here's what some known entries look like.
>>> print(df.to_string())
                                   compound  metric_name  reported_value
0  Cn1c(=O)c2c(nc(NCc3ccccc3)n2CC(N)=O)n(C)c1=O      Potency        inactive
1  COc1ccc(CCN2CNc3c(c(=O)n(C)c(=O)n3C)C2)cc1OC      Potency        inactive
2  COC(=O)C(C)Sc1nc2c(c(=O)n(C)c(=O)n2C)n1Cc1cccc(C)c1 (configuration not stated)      Potency        inactive
3  O=C(Cn1cnc2ccccc2c1=O)NCC1COc2ccccc2O1 (configuration not stated)      Potency        inactive
4  CCCCNc1nc2c(c(=O)[nH]c(=O)n2C)n1CCOc1ccccc1      Potency        inactive

Exam item: Could you tell me which Potency is on file for CC(C)CNC(=O)C1CCCN(S(=O)(=O)c2ccc(-n3cnnn3)cc2)C1 (configuration not stated) ?
Marked response: inactive

Exam item: Query (compound): CN(C(=O)CN1C(=O)/C(=C/c2ccc(Cl)cc2)SC1=S)C1CCS(=O)(=O)C1 (configuration not stated) ; field requested: Potency
Marked response: inactive

Exam item: Please give the measured Potency for this compound: CCn1c(NCCc2ccc(OC)c(OC)c2)nc2c1c(=O)n(C)c(=O)n2C
Marked response: 11.6 µM (active)

Exam item: # get_value(readout='Potency', item= CCOc1ccccc1-c1cc(C(=O)N/N=C(\C)c2cccnc2)c2ccccc2n1 )
Marked response: inactive

Exam item: Returns the measured Potency for the input compound. Input: O=C(Nc1ccc(F)cc1)C1CCCN(S(=O)(=O)c2ccc(-n3cnnn3)cc2)C1 (configuration not stated)
Marked response: inactive

Exam item: For the compound shown here, COc1cccc(C(=O)Nc2ccc(N3CCN(C(=O)c4ccco4)CC3)cc2)c1 , give the reported Potency.
Marked response: 13 µM (active)

Exam item: Could you share which Potency value was measured for Cc1ccc(C)c(OCC(=O)N2CCN(C(=O)c3ccco3)CC2)c1 ?
Marked response: inactive
